binders and their reported Ki
# tested_system: HLA-A0101 (human)
# experiment_notes: competition vs labelled reference peptide
# condition_context: remark: other sources report otherwise
Give just the number in nM; leave the unit off.

>>> print(df.to_string())
                                  binder  reported
0  MGSSYGFQY (modifications not checked)      1020

Continue with the next binder.
Query: Given the binder KSTKVPAAY (modifications not checked) , what is its reported Ki?
Reply: 950
